Molecular target: KRAS-G12D (Homo sapiens, UniProt P01116, G12D)
Construct: endogenous in cells; host or cells: A-427 (ATCC), AGS, AsPc-1, Panc 04.03
Sequence (P01116 1-188 isoform P01116-2 G12D): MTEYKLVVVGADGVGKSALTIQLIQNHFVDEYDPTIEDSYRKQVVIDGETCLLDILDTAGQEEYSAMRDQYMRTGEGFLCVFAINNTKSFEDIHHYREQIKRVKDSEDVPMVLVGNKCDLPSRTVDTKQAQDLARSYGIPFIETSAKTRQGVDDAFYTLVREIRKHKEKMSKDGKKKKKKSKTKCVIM
Test: KRAS-G12D degradation assay (Western Blot), A-427 cells
Assay type: cell-based
Conditions: A427 cells, 24 h; class symbols
PARAMETER_MEASURED: DC50

Task: For the molecule shown here, C#Cc1c(F)ccc2cc(O)cc(-c3ncc4c(N5CC6CCC(C5)N6)nc(NCC5(CN6CCN(CC7CCC8(CC7)CCN(C(=O)c7ccc(C)c(N9CCC(=O)NC9=O)c7)CC8)CC6)CC5)nc4c3F)c12 , give the reported DC50.
Output: ≤ 50 nM

Task: For the molecule shown here, C#Cc1c(F)ccc2cc(O)cc(-c3ncc4c(N5CC6CCC(C5)N6)nc(OCC5(CN6CCN(CCCCC7CCC8(CC7)CCN(C(=O)c7ccc(Cl)c(N9CCC(=O)NC9=O)c7)CC8)CC6)CC5)nc4c3F)c12 , give the reported DC50.
Output: ≤ 50 nM

Task: For the molecule shown here, C#Cc1c(F)ccc2cc(O)cc(-c3ncc4c(N5CC6CCC(C5)N6)nc(OCC5(CN6CCN(CC7CCC8(CC7)CCN(C(=O)c7ccc(OC)c(N9CCC(=O)NC9=O)c7)CC8)CC6)CCC5)nc4c3F)c12 , give the reported DC50.
Output: ≤ 50 nM

Task: For the molecule shown here, C#Cc1cccc2cc(O)cc(-c3ncc4c(N5CC6CCC(C5)N6)nc(OCC5(CN6CCN(CC7CCC8(CC7)CCN(C(=O)c7ccc(Cl)c(N9CCC(=O)NC9=O)c7)CC8)CC6)CC5)nc4c3F)c12 , give the reported DC50.
Output: ≤ 50 nM

Task: For the molecule shown here, C#Cc1c(F)ccc2cc(O)cc(-c3ncc4c(N5CC6CCC(C5)N6)nc(OCC(C)(C)CN5CCN(CCCC6CCN(C(=O)c7ccc(Cl)c(N8CCC(=O)NC8=O)c7)CC6)CC5)nc4c3F)c12 , give the reported DC50.
Output: 1000 to 10000 nM

Measured values drawn from patent US20260166159A1 for this set.
